Value source: PubChem BioAssay (NCATS)

test: qHTS of pediatric cancer cell lines to identify multiple opportunities for drug repurposing: Primary screen for U-2 OS cells (AID 1347096); details: U-2 OS viability, CellTiter-Glo luminescence, 48 h; series mostly up to 46 µM;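 further: plate controls were DMSO wells for no effect and bortezomib positive control wells for full effect; nearly all actives have a fitted effect of over 50% in size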
Results filed as inconclusive are left out. Activity calls are given as the source filed them. The call rests on the fitted dose curve; in most records, active means well fitted cell-killing curve with a large enough effect; inconclusive means small, poorly fitted or top-dose-only effect; inactive means flat fitted curve, though single readings scatter.
MEASURE: activity change, negative = cytotoxic

See these solved cases before continuing.
CN(C)C(=O)Oc1ccc[n+](C)c1 :: inactive
CCCCCN(CCCCC)C(=O)C(CCC(=O)O)NC(=O)c1ccc(Cl)c(Cl)c1 (configuration not stated) :: inactive
CC(=O)[C@@]1(O)CC[C@H]2[C@@H]3CCC4=CC(=O)CC[C@]4(C)[C@H]3CC[C@@]21C :: inactive
Cc1nnc(SCC2=C(C(=O)O)N3C(=O)[C@@H](NC(=O)Cn4cnnn4)[C@H]3SC2)s1 :: inactive
Cc1ccc(Cl)c(Nc2ccccc2C(=O)O)c1Cl :: inactive

Given the entry C[C@]12CCC(=O)C=C1CC[C@@H]1[C@@H]2CC[C@@]2(C)[C@H]1CC[C@]2(O)C(=O)CO , report its measured activity change, negative = cytotoxic.
inactive

May I ask what activity change, negative = cytotoxic has been recorded for CN(C)[C@@H]1C(=O)C(C(N)=O)=C(O)[C@@]2(O)C(=O)C3=C(O)c4c(O)ccc(Cl)c4[C@@H](O)[C@H]3C[C@@H]12 ?
inactive

# get_value(readout='activity change, negative = cytotoxic', item= CCN(Cc1ccncc1)C(=O)C(CO)c1ccccc1 (configuration not stated) )
inactive

activity change, negative = cytotoxic lookup needed for Cc1nc2ccccn2c(=O)c1CCN1CCC(C(=O)c2ccc(F)cc2)CC1 , thanks.
inactive

Can you look up the measured activity change, negative = cytotoxic of CC(C)NNC(=O)c1ccncc1 for me?
inactive

Name the recorded activity change, negative = cytotoxic for COc1ccc2c(c1OC)C(=O)O[C@@H]2[C@H]1c2c(cc3c(c2OC)OCO3)CCN1C .
inactive

Which activity change, negative = cytotoxic reading was recorded for the compound CCN(CC)CCNC(=O)c1ccc(NC(C)=O)cc1 ?
inactive

###

molecular target: Pyruvate kinase (Leishmania mexicana); test: qHTS Validation Assay for Inhibitors of Leishmania Mexicana Pyruvate Kinase (AID 945);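 further: 0% = DMSO only neutral control wells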; details: purified L. mexicana pyruvate kinase, enzyme activity, E451W mutant enzyme; series mostly up to 57.5 µM
Calls of active or inactive are those of the source. The call rests on the fitted dose curve; in most records, active means well fitted inhibition curve with a large enough effect; inconclusive means small, poorly fitted or top-dose-only effect; inactive means no such curve, though single readings can be large or run the other way.
Log the outcome using a class from 1.0 for active, 0.0 for inactive

Solved entries:
CN(C)C(=O)Oc1ccc[n+](C)c1 :: 0.0
COC(=O)[C@H]1[C@H]2C[C@@H]3c4[nH]c5cc(OC)ccc5c4CCN3C[C@H]2C[C@@H](OC(=O)c2cc(OC)c(OC)c(OC)c2)[C@@H]1OC :: 0.0
CN(C)CCCN1c2ccccc2Sc2ccc(C(F)(F)F)cc21 :: 0.0
CCNC(=O)N1CCN(CCCC(c2ccc(F)cc2)c2ccc(F)cc2)CC1 :: 0.0
O=C(O)CCCCCCCC(=O)O :: 0.0

Fill in: this test's call for CCCC(C(=O)OCCN(CC)CC)(c1ccccc1)c1ccccc1 is ___
0.0

Hey, what did the test say about COc1cc(Cc2cnc(N)nc2N)cc(OC)c1OC ?
0.0

Recorded call for CCCN(CCC)CCc1cccc2c1CC(=O)N2 ?
0.0

###

test: qHTS for Activators of Parkin Expression: LOPAC Validation Assay (NLuc Reporter) (AID 720572;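 on activation: 0% = DMSO and 100% = positive control compound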); details: Parkin promoter NanoLuc reporter cells, luminescence; series mostly up to 46.1 µM
Records with an inconclusive call do not appear. Active and inactive are the calls of the source. Calls come from the whole dose curve; as a rule, active = well fitted activation curve with a large enough effect; inconclusive = small, poorly fitted or top-dose-only effect; inactive = flat fitted curve, though single readings scatter.
Choose the fitting class; nothing outside active, inactive is accepted.

OCCN1CCN(CC/C=C2/c3ccccc3Sc3ccc(C(F)(F)F)cc32)CC1 :: inactive
Cc1nc2c([nH]1)c(=O)n(C)c(=O)n2Cc1ccco1 :: inactive
COC(=O)C1=C(C)NC(C)=C(C(=O)OCCN(C)Cc2ccccc2)C1c1cccc([N+](=O)[O-])c1 (stereo not drawn) :: active

Can you look up the reported call for O=c1[nH]c(=O)n([C@H]2C[C@H](O)[C@@H](CO)O2)cc1Br for me?
inactive

How did this test come out for C[N+](C)(C)CCOC(N)=O ?
inactive

###

Examples of compounds with documented activity, negative = cell killing follow.
assay: Drug repurposing screens with cells derived from glioblastoma tumor samples (AID 1345199); details: GBM patient neurospheres viability, ATP luminescence, 48 h; at 46 µM (top of the series); tumour line A; further: on the % scale 0 is the no-effect control and ±100 the full control effect; nearly all actives have a fitted effect of over 40% in size
Records with an inconclusive call do not appear.
Answer with a number only, understood to be in %.

The examples below pair each entry with its known result.
C#CCN(C)CCCOc1ccc(Cl)cc1Cl :: -39.4
CCN(CC)CCNC(=O)c1ccc(NC(C)=O)cc1 :: 7.67
CCCOc1ccccc1-c1nc2n[nH]nc2c(=O)[nH]1 :: -28
NC(=O)c1cn(Cc2c(F)cccc2F)nn1 :: -26.2
Cc1ccc(S(=O)(=O)NC(=O)NN2CCCCCC2)cc1 :: -3.14
NC/C=C/C(=O)O :: -7.07

Please give the measured activity, negative = cell killing for this compound: CC(C)[N+](C)(CCOC(=O)C1c2ccccc2Oc2ccccc21)C(C)C
-16.6

###

system: CP260; assay: qHTS profiling for inhibitors of Plasmodium falciparum proliferation (AID 504749); further: nearly all actives have a fitted effect of over 60% in size; details: P. falciparum in erythrocytes, SYBR Green DNA, 72 h; series mostly up to 28.7 µM
Records with an inconclusive call do not appear. Calls of active or inactive are those of the source. Calls come from the whole dose curve; as a rule, active = well fitted inhibition curve with a large enough effect; inconclusive = small, poorly fitted or top-dose-only effect; inactive = flat fitted curve, though single readings scatter.
Bench note: report the call from active, inactive

O=C(O)CN(CCOCCOCCN(CC(=O)O)CC(=O)O)CC(=O)O :: inactive
O=C(O)CN(CCN(CC(=O)O)CC(=O)O)CCN(CC(=O)O)CC(=O)O :: inactive
CN1CCN(CC(=O)N2c3ccccc3C(=O)Nc3cccnc32)CC1 :: inactive

Shift focus to the following entry.
Any idea what this test logged for COCC(=O)O[C@]1(CCN(C)CCCc2nc3ccccc3[nH]2)CCc2cc(F)ccc2[C@@H]1C(C)C ?
active

###

test system: CP268; assay: qHTS profiling for inhibitors of Plasmodium falciparum proliferation (AID 504749); further: nearly all actives have a fitted effect of over 60% in size; settings: P. falciparum in erythrocytes, SYBR Green DNA, 72 h; series mostly up to 28.7 µM
Results filed as inconclusive are left out. The source made the active and inactive calls. The call rests on the fitted dose curve; in most records, active means well fitted inhibition curve with a large enough effect; inconclusive means small, poorly fitted or top-dose-only effect; inactive means flat fitted curve, though single readings scatter.
The categories you may choose from are active, inactive

CCNC(=O)N1CCN(CCCC(c2ccc(F)cc2)c2ccc(F)cc2)CC1 :: active

Could you please tell me the result logged for Cc1nc2ccccn2c(=O)c1CCN1CCC(C(=O)c2ccc(F)cc2)CC1 in this assay?
inactive

Record request — test call for CN1CCN(C2=Nc3ccccc3Oc3ccc(Cl)cc32)CC1
inactive

Please let me know the test result on file for CC(=O)OCC1=C(C(=O)O)N2C(=O)[C@@H](NC(=O)Cc3cccs3)[C@H]2SC1 .
inactive

Look up the recorded call for CC(C)(Oc1ccc(CCNC(=O)c2ccc(Cl)cc2)cc1)C(=O)O in this test.
inactive

State the result this test recorded for O=C1CC2(CCCC2)CC(=O)N1CCCCN1CCN(c2ncccn2)CC1 .
inactive

Given Nc1c2c(nc3ccccc13)CCCC2O (stereo not drawn) , state the outcome it received in this test.
inactive

Name the outcome recorded for CCCCCN(CCCCC)C(=O)C(CCC(=O)O)NC(=O)c1ccc(Cl)c(Cl)c1 (stereo not drawn) in the assay.
inactive

###

Tested on: CP238
Assay: qHTS profiling for inhibitors of Plasmodium falciparum proliferation (AID 504749); further: nearly all actives have a fitted effect of over 60% in size
Settings: P. falciparum in erythrocytes, SYBR Green DNA, 72 h; series mostly up to 28.7 µM
Protocol: NIH National Institute of Allergy and Infectious Diseases [NIAID] NIH Chemical Genomics Center [NCGC] […] Because mature erythrocytes lack DNA, only Plasmodium-derived DNA is detected. NCGC Assay Protocol Summary: The SYBR Green viability assay was adapted from a method described previously (Plouffe et al., 2008). […] The following morning, fluorescence intensity at 485(14) nm excitation and 535(25) nm emission wavelengths was measured on an EnVision (Perkin Elmer) plate reader. […]
Results filed as inconclusive are left out. Activity calls are given as the source filed them. Calls come from the whole dose curve; as a rule, active = well fitted inhibition curve with a large enough effect; inconclusive = small, poorly fitted or top-dose-only effect; inactive = flat fitted curve, though single readings scatter.
Log the outcome using a class from 1 for active, 0 for inactive

COc1cc2c(cc1OC)-c1cc(=Nc3c(C)cc(C)cc3C)n(C)c(=O)n1CC2 :: 1
CCN(CC)CCCN(c1ccccc1)C1Cc2ccccc2C1 :: 1

How did this test come out for CCCCOCCOCCOCc1cc2c(cc1CCC)OCO2 ?
0

What did the test return for COC(=O)[C@H]1[C@H]2C[C@@H]3c4[nH]c5cc(OC)ccc5c4CCN3C[C@H]2C[C@@H](OC(=O)c2cc(OC)c(OC)c(OC)c2)[C@@H]1OC ?
1

Please indicate how the test categorized CCNC(=O)N1CCN(CCCC(c2ccc(F)cc2)c2ccc(F)cc2)CC1 .
1

###

test system: CP237; test: qHTS profiling for inhibitors of Plasmodium falciparum proliferation (AID 504749); further: nearly all actives have a fitted effect of over 60% in size; conditions: P. falciparum in erythrocytes, SYBR Green DNA, 72 h; series mostly up to 28.7 µM
Results filed as inconclusive are left out. Active and inactive are the calls of the source. Calls follow the shape of the dose curve; as a rule, active = well fitted inhibition curve with a large enough effect; inconclusive = small, poorly fitted or top-dose-only effect; inactive = flat fitted curve, though single readings scatter.
A correct response names exactly one class from active, inactive

CCCCOCCOCCOCc1cc2c(cc1CCC)OCO2 :: inactive
COc1cc2c(cc1OC)-c1cc(=Nc3c(C)cc(C)cc3C)n(C)c(=O)n1CC2 :: active
CCn1cc(C(=O)O)c(=O)c2cc3c(cc21)OCO3 :: inactive
O=c1[nH]c(=O)n([C@H]2C[C@H](O)[C@@H](CO)O2)cc1Br :: inactive
C[C@]12CCC(=O)C=C1CC[C@@H]1[C@@H]2CC[C@@]2(C)[C@H]1CC[C@]2(O)C(=O)CO :: inactive

Call for entry C[N+](C)(C)CCOC(=O)CCC(=O)OCC[N+](C)(C)C :
inactive
